Quick list: inhibition at 160 µM per entry.
# Test system: S. epidermidis strain ATCC 35984
# ASSAY METHOD TEXT: Biofilm prevention screen (96-well microplate, crystal violet)
# Type: cell-based
# RECORDED CONDITIONS: Staphylococcus epidermidis, ATCC35984, 160 μM, positive = prevention, negative = enhancement of biofilm formation, quadruplicate, read-out: average percentage reduction of biofilm formed relative to DMSO controls
# Procedure: […] Cells present in biofilm attached to the microplate surface are stained with CV either after removal of the liquid from each well, followed by rinsing three times (aspiration and addition) with 150 μl per well phosphate buffered saline solution (PBS) and final addition of 100 μl per well of PBS, or by direct addition of stain to bacterial cultures without rinsing. […] Readings from wells containing compounds are compared to the average of data from control wells that contain only DMSO. […]
Answer format: numeric, % implied, no suffix.

In the examples that follow, each entry is paired with its recorded inhibition at 160 µM.
CCCCCCCCCCCCNC(=O)[C@H]1CCCN1C(=O)OC(C)(C)C
-20
CCCCCCCCNC(=O)[C@@H]1CCCN1C(=O)OC(C)(C)C
-60
CCCCCCCCCCNC(=O)[C@@H]1CCN1
101
CCCCCCCCNC(=O)[C@H]1CCCN1
-1

Entry CCCCCCCCNC(=O)[C@@H]1CCCN1 has what inhibition at 160 µM?
-1

Please give the measured inhibition at 160 µM for this molecule: CCCCCCCCNC(=O)[C@@H]1CCN1C(=O)OC(C)(C)C
-33

Which measured inhibition at 160 µM value corresponds to O=C(NCCCCCCCCCCCCNC(=O)[C@H]1CCCN1)[C@H]1CCCN1 [Compound 226, D-proline 1,12-diaminododecane bisamide] ?
101

Any idea what inhibition at 160 µM was measured for CCCCCCCCNC(=O)[C@H]1CCCCN1C(=O)CCCCCCC ?
-44

Could you tell me which inhibition at 160 µM is on file for CC(C)(C)OC(=O)N1CCC[C@@H]1C(=O)NCCCCCCCCCCCCNC(=O)[C@H]1CCCN1C(=O)OC(C)(C)C ?
-24
